Tested on: SR leukemia
EXPERIMENT_SUMMARY: NCI tumour cell line growth inhibition, 48 h
RECORDED_ENDPOINT: TGI (µM)
The figure you give is taken to be in µM; do not add the unit.

# count of solved cases: 2
COMPOUND: C=C(CN1CCc2ccccc2C1)c1ccc(CCC(=O)Nc2ccccc2N)cc1
TGI / µM: 74.5
--
COMPOUND: O=C(Nc1ccc(OCc2nnc(-c3ccc(Cl)cc3)o2)c(F)c1)Nc1ccc(Cl)c(Cl)c1
TGI / µM: 7.57

Ask: So what's the measured TGI for this one? COC(=O)C1SC(N(C)c2ccccc2)=NC12c1ccccc1Nc1ccccc12 (stereo unspecified)
Reply: 43.3

---

Tested on: MOLT-4 leukemia
EXPERIMENT_SUMMARY: NCI tumour cell line growth inhibition, 48 h
RECORDED_ENDPOINT: TGI

Previously resolved entries follow.
COMPOUND: CCc1nc(N)nc(N)c1-c1ccc2c(c1)nnn2CCc1ccccc1
EXPERIMENTAL_TARGET: MOLT-4 leukemia
TGI: 50.2 µM
--
COMPOUND: CCc1ccccc1N1C(=O)C(=O)C(c2nc3ccccc3s2)C(=O)C1=O
EXPERIMENTAL_TARGET: MOLT-4 leukemia
TGI: > 100 µM
--
COMPOUND: CC(=O)O[C@H]1C(=O)[C@@]2(C)[C@H]([C@H](OC(=O)c3ccccc3)[C@]3(O)C[C@H](OC(=O)[C@H](OC(=O)OC[C@@H]4COC(C)(C)O4)[C@@H](NC(=O)c4ccccc4)c4ccccc4)C(C)=C1C3(C)C)[C@]1(OC(C)=O)CO[C@@H]1C[C@@H]2O
EXPERIMENTAL_TARGET: MOLT-4 leukemia
TGI: > 33.3 µM

Ask: Fill in the blank: the reported TGI of `C[Si](C)(C)/N=C1\N2C(=NC1(C(F)(F)F)C(F)(F)F)Sc1ccccc12` is ____.
Reply: > 50 µM

Ask: Param item = N#CC(C#N)=c1ccc(=C2N3CCCC3CN2C23CC4CC(CC(C4)C2)C3)cc1 (stereo unspecified) ; retrieve measured TGI.
Reply: > 100 µM

Ask: // TGI lookup, key: `N#CC(C#N)=C(C(C#N)C#N)C(C#N)C#N`
Reply: > 100 µM

Ask: Bench note: what TGI did `CCCCSC(=CC(=O)c1cccc(C(=O)C=C(SCCCC)SCCCC)n1)SCCCC` show?
Reply: > 100 µM

Ask: Any idea what TGI was measured for `COc1ccc(-c2c3ccccc3c(-c3ccc(OCCBr)cc3)c3ccccc23)cc1` ?
Reply: > 100 µM

---

Tested on: BT-549 breast
EXPERIMENT_SUMMARY: NCI tumour cell line growth inhibition, 48 h
RECORDED_ENDPOINT: log10 of TGI (log10 of the value in µM)
Plainly stated, the numbers are log10 of TGI given in µM.

MOLECULE: C=C1C(=O)c2sccc2C(c2ccc(OC)c(OC)c2)C1COC(C)=O (stereo not drawn)
EXPERIMENTAL_TARGET: BT-549 breast
RECORDED_ENDPOINT: log10 of TGI
MEASURED_NUMBER: 0.68
--
MOLECULE: O=C1CC(c2ccccc2Cl)C2(C(=O)NC(=S)NC2=O)C(c2ccccc2Cl)C1 (stereo not drawn)
EXPERIMENTAL_TARGET: BT-549 breast
RECORDED_ENDPOINT: log10 of TGI
MEASURED_NUMBER: 1.99
--
MOLECULE: C=C(C(=O)OC1C(CO)OC(OCC2CC[C@@H]3C[C@]4(OC(=O)C3=C)C(C)=CC(=O)C24)C(O)C1O)[C@@H]1CCC(CO)C2C(=O)C=C(C)[C@@]2(O)C1 (stereo partly drawn)
EXPERIMENTAL_TARGET: BT-549 breast
RECORDED_ENDPOINT: log10 of TGI
MEASURED_NUMBER: 0.55
--
MOLECULE: COc1ccc2c(c1)SC1=NNC(Cl)C(=O)N12 (stereo not drawn)
EXPERIMENTAL_TARGET: BT-549 breast
RECORDED_ENDPOINT: log10 of TGI
MEASURED_NUMBER: 1.61
--
MOLECULE: C[C@]12CC[C@@H]3c4ccc(O)cc4CC[C@H]3[C@@H]1CC[C@@H]2NS(=O)(=O)c1cccc(OC(F)(F)F)c1
EXPERIMENTAL_TARGET: BT-549 breast
RECORDED_ENDPOINT: log10 of TGI
MEASURED_NUMBER: 0.56

Continue with the molecule presented below.
Ask: Which log10 of TGI is listed for `COc1cc(C(=O)/C=C/c2c(C)n([O-])c3ccc(C(F)(F)F)cc3[n+]2=O)cc(OC)c1OC` ?
Reply: 1.41

---

System: CAKI-1 renal
EXPERIMENT_SUMMARY: NCI tumour cell line growth inhibition, 48 h
RECORDED_ENDPOINT: TGI

Ask: Could you share which TGI value was measured for `CC(=O)c1ccc(NC(=O)/C(CC(=O)/C=C/c2ccccc2)=N/NC(N)=S)cc1` ?
Reply: > 100 µM

Ask: Item under review: `O=C(C=P(c1ccccc1)(c1ccccc1)c1ccccc1)CC(=S)CC(=O)C=P(c1ccccc1)(c1ccccc1)c1ccccc1` . Reported TGI?
Reply: > 100 µM

Ask: Please give the measured TGI for this compound: `CCOC(=O)N1CCN(c2ccc3ccc(N)nc3n2)CC1`
Reply: > 100 µM

---

Tested on: MOLT-4 leukemia
EXPERIMENT_SUMMARY: NCI tumour cell line growth inhibition, 48 h
Collected TGI values appear next to each entry.

Take a look at these entries with their results.
MOLECULE: COc1ccc(C2C(C#N)=C(N)Oc3c2sc2c(C)cccc32)cc1 (stereo not given)
TGI: 9.43 µM
--
MOLECULE: Clc1ccc(Cl)c(NNc2cc(Cl)ccc2Cl)c1
TGI: > 10 µM
--
MOLECULE: C[C@]12CC[C@@H]3c4ccc(O)cc4CC[C@H]3[C@@H]1CC[C@@H]2NS(=O)(=O)c1cccc(OC(F)(F)F)c1
TGI: 12.1 µM
--
MOLECULE: c1ccc2c(c1)CN1CCCC1CN2 (stereo not given)
TGI: > 100 µM
--
MOLECULE: CCOC(=O)Cc1cc(=O)oc2cc(O)ccc12
TGI: > 100 µM

Proceed to the following item.
Ask: # query: TGI of entry `CCCCCc1cccc(=O)o1`
Reply: > 100 µM

---

System: HS 578T breast
EXPERIMENT_SUMMARY: NCI tumour cell line growth inhibition, 48 h
Known TGI of a selection of compounds

These recorded examples may help you get a feel for the data.
COMPOUND: CC(C)(C)OCC1NC(=O)[C@@H]2Cc3c([nH]c4ccccc34)C(C3CCCCC3)N2C1=O (stereo partly drawn)
RECORDED_ENDPOINT: TGI
RESULT: 51.8 µM

COMPOUND: C=CCSSC1N=CNc2nc[nH]c21 (stereo not drawn)
RECORDED_ENDPOINT: TGI
RESULT: > 100 µM

COMPOUND: CCOC(=O)C(CS)NC(=O)CCCCCCCC(=O)O (stereo not drawn)
RECORDED_ENDPOINT: TGI
RESULT: > 100 µM

COMPOUND: C=CC(=O)N1CC2(CCC(n3nc(-c4ccc(Oc5ccccc5)cc4)c4c(N)ncnc43)CC2)C1
RECORDED_ENDPOINT: TGI
RESULT: 1.54 µM

COMPOUND: CC(C)(NO)/C(=N\O)c1ccco1
RECORDED_ENDPOINT: TGI
RESULT: > 100 µM

COMPOUND: Cc1cc(CN2CCCCC2)c(O)c(CN2CCCCC2)c1
RECORDED_ENDPOINT: TGI
RESULT: > 100 µM

COMPOUND: COC(=O)C1=C(OC(=O)/C(=C/c2ccccc2)c2ccccc2)C(C(=O)OC)[C@@]2(O)[C@@H](C(=O)OC)[C@H](C)C[C@@H]1[C@@H]2C(=O)OC (stereo partly drawn)
RECORDED_ENDPOINT: TGI
RESULT: > 100 µM

Ask: What value of TGI has been recorded for this entry: C/C=C1/C[C@@H](C)[C@@](C)(O)C(=O)OCC2=CC[N+]3([O-])CC[C@@H](OC1=O)[C@@H]23 (stereo partly drawn)
Reply: > 100 µM

---

Observed GI50 values for SK-OV-3 ovarian are listed in what follows.

# count of solved cases: 2
COMPOUND: COc1ccc(C2C(C#N)=C(N)Oc3c2sc2c(C)cccc32)cc1 (stereo not drawn)
GI50: 0.613 µM
--
COMPOUND: CCOC(=O)Nc1nc2cc(OC)c(OC)c(OC)c2s1
GI50: 66.5 µM

Alright, here's another compound for you.
Ask: For the record `C[C@]12CC[C@@H]3c4ccc(O)cc4CC[C@H]3[C@@H]1CC[C@@H]2NS(=O)(=O)c1cccc(OC(F)(F)F)c1` , what value of GI50 is listed for SK-OV-3 ovarian?
Reply: 3.1 µM

Entry source: PubChem BioAssay (NCI)
